Give koff for every item shown.
- subjectOfTest: T1, human programmed cell death protein 1 (hPD-1) C93S (aa 24-167) (Homo sapiens, UniProt Q15116, C93S)
- T1 construct: made as a fusion with a TEV site and human Fc; the Fc was cut off with TEV protease; source: Expi293F, purified (Protein A, TEV cleavage of Fc, SEC; monomer fractions); not shown: Fc (human), C-terminal, cleaved
- protocolSummary: SPR; Carterra LSA; Fab from the ammonium sulfate precipitate of the culture supernatant immobilised on a NiHC200M chip; hPD-1 (1-1024 nM) or mPD-1-Fc (4-1024 nM) as analyte, fourfold dilution series, no regeneration; HBS-EP pH 7.4, 25 °C; medians over the spots of a construct, KD = koff/kon
- protocolConditions: one partner purified
Value expressed in s⁻¹; do not type the unit.

Consider toripalimab Fab H.I101Y (Fab, V domains shown, heavy chain of Sm3 with this change; numbers count from the chain's first residue; as the light chain of Sm3; source: Brevibacillus, culture supernatant (ammonium sulfate precipitate); not shown: 6xHis, C-terminal, kept; 6xHN, C-terminal, kept) VH: QGQLVQSGAEVKKPGASVKVSCKASGYTFTDYEMHWVRQAPIHGLEWIGVIESETGGTAYNQKFKGRVTITADKSTSTAYMELSSLRSEDTAVYYCAREGYTTVATTYYWYFDVWGQGTTVTVSS VL: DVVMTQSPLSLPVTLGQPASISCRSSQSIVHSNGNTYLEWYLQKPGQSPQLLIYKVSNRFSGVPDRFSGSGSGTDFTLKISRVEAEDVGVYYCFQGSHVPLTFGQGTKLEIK . Its measured koff is 0.000227

Consider toripalimab Fab L.F60Y (Fab, V domains shown, as the heavy chain of Sm3; light chain of Sm3 with this change; numbers count from the chain's first residue; source: Brevibacillus, culture supernatant (ammonium sulfate precipitate); not shown: 6xHis, C-terminal, kept; 6xHN, C-terminal, kept) VH: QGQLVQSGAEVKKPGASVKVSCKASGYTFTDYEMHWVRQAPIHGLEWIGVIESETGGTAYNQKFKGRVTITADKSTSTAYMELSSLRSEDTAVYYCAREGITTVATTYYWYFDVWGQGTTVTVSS VL: DVVMTQSPLSLPVTLGQPASISCRSSQSIVHSNGNTYLEWYLQKPGQSPQLLIYKVSNRYSGVPDRFSGSGSGTDFTLKISRVEAEDVGVYYCFQGSHVPLTFGQGTKLEIK . Its measured koff is 1.12e-05

Consider toripalimab Fab L.P100T (Fab, V domains shown, as the heavy chain of Sm3; light chain of Sm3 with this change; numbers count from the chain's first residue; source: Brevibacillus, culture supernatant (ammonium sulfate precipitate); not shown: 6xHis, C-terminal, kept; 6xHN, C-terminal, kept) VH: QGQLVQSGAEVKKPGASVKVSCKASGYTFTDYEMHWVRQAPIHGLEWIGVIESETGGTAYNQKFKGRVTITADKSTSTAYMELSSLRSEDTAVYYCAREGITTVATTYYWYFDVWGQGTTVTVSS VL: DVVMTQSPLSLPVTLGQPASISCRSSQSIVHSNGNTYLEWYLQKPGQSPQLLIYKVSNRFSGVPDRFSGSGSGTDFTLKISRVEAEDVGVYYCFQGSHVTLTFGQGTKLEIK . Its measured koff is 1.18e-05

Consider toripalimab Fab L.Q95A (Fab, V domains shown, as the heavy chain of Sm3; light chain of Sm3 with this change; numbers count from the chain's first residue; source: Brevibacillus, culture supernatant (ammonium sulfate precipitate); not shown: 6xHis, C-terminal, kept; 6xHN, C-terminal, kept) VH: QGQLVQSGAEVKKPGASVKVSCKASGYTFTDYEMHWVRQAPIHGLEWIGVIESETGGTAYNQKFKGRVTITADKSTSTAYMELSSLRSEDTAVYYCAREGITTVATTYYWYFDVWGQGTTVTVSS VL: DVVMTQSPLSLPVTLGQPASISCRSSQSIVHSNGNTYLEWYLQKPGQSPQLLIYKVSNRFSGVPDRFSGSGSGTDFTLKISRVEAEDVGVYYCFAGSHVPLTFGQGTKLEIK . Its measured koff is 4.22e-05

Consider toripalimab Fab L.L101F (Fab, V domains shown, as the heavy chain of Sm3; light chain of Sm3 with this change; numbers count from the chain's first residue; source: Brevibacillus, culture supernatant (ammonium sulfate precipitate); not shown: 6xHis, C-terminal, kept; 6xHN, C-terminal, kept) VH: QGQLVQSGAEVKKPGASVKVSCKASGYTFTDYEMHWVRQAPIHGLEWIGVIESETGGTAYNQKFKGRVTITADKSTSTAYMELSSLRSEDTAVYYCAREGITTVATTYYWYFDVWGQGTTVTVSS VL: DVVMTQSPLSLPVTLGQPASISCRSSQSIVHSNGNTYLEWYLQKPGQSPQLLIYKVSNRFSGVPDRFSGSGSGTDFTLKISRVEAEDVGVYYCFQGSHVPFTFGQGTKLEIK . Its measured koff is 0.000141
